Source listed as patent US9434763B2.

target: His tagged recombinant human tissue transglutaminase (His6-rh-TG2) (Homo sapiens, UniProt P21980); experiment: Inactivation of human tissue transglutaminase, fluorescence assay with Abz-APE(CAD-DNP)QEA-OH; details: substrate Abz-APE(CAD-DNP)QEA-OH, 37° C., pH=7.5
Sequence (P21980 whole entry): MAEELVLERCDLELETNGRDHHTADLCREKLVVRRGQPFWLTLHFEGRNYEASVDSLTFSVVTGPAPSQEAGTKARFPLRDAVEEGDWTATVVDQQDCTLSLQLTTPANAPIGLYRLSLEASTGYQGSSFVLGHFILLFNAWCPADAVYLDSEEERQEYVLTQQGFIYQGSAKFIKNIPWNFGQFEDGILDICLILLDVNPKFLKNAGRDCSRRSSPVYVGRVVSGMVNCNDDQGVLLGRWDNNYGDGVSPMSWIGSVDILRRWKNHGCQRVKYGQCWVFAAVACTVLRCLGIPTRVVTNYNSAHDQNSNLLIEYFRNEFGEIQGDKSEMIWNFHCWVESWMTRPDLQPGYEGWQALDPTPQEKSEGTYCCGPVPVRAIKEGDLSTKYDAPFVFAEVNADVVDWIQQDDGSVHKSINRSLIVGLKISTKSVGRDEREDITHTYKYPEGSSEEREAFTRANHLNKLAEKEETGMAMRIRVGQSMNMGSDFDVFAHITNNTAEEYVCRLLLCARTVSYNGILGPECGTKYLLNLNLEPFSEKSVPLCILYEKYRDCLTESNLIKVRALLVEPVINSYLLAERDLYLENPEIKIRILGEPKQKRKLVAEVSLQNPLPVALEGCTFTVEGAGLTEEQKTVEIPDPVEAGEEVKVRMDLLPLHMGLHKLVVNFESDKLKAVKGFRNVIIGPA
Quantity Kind: IC50 (µM)

CCOC(=O)/C=C/CC[C@H](NC(=O)c1ccc(S(N)(=O)=O)cc1)C(=O)Nc1cccn(CC(=O)NCCC(C)C)c1=O [A14]	0.137
CCOC(=O)/C=C/CC[C@H](NC(=O)CCC(=O)O)C(=O)Nc1cccn(CC(=O)NCc2ccc(C(F)(F)F)cc2)c1=O [A37]	0.34
CCOC(=O)/C=C/CC[C@H](NC(C)=O)C(=O)Nc1cccn(CC(=O)N[C@H](CC(C)C)C(=O)OC)c1=O [A33]	0.493

a = CCOC(=O)/C=C/CC[C@H](NS(=O)(=O)c1ccccc1)C(=O)Nc1cccn(CC(=O)NCCC(C)C)c1=O [A22]
b = CCOC(=O)/C=C/CC[C@H](NC(=O)CCC(=O)O)C(=O)Nc1cccn(CC(=O)N[C@H](CC(C)C)C(=O)OC)c1=O [A34]
c = CCOC(=O)/C=C/CC[C@H](NC(=O)CCC(=O)O)C(=O)Nc1cccn(CC(=O)NCCN(CC)CC)c1=O [A26]
Put the compounds in ascending order of IC50. // ordering of labels required in reply
a, b, c

----------
Target protein (sequence): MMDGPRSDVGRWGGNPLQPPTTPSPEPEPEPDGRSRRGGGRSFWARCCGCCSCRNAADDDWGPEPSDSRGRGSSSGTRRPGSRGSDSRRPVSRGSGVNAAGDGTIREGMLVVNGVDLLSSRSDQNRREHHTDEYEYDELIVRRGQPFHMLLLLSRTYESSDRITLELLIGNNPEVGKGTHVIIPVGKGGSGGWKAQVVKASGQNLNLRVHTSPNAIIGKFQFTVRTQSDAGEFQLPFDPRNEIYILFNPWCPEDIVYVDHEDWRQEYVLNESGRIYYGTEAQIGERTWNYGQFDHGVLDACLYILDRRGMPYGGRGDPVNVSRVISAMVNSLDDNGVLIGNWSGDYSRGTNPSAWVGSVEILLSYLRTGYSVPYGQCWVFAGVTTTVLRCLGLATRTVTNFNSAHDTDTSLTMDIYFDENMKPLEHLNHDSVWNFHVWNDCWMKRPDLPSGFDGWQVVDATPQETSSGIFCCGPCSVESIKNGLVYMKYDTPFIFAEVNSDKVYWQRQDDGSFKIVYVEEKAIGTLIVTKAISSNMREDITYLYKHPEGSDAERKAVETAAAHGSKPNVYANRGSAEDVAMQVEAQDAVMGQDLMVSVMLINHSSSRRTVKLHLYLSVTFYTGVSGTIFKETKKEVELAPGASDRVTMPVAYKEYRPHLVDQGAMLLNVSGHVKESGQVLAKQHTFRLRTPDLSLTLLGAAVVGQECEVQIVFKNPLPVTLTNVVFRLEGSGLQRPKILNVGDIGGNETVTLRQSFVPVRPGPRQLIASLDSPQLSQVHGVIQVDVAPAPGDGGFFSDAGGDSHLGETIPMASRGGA
pIC50: −log10 of the molar value.
Quantity Kind: pIC50

Use the examples below as a reference point.
COC(=O)/C=C/CC[C@H](NC(C)=O)C(=O)Nc1cccn(CC(=O)NCCC(C)C)c1=O	4.55
CCOC(=O)/C=C/CC[C@H](NC(=O)c1cncn1C)C(=O)Nc1cccn(CC(=O)N[C@H](C(=O)O)[C@H](C)CC)c1=O	4.16

P = CCOC(=O)/C=C/CC[C@H](NC(=O)c1cncn1C)C(=O)Nc1cccn(CC(=O)NCCC(C)C)c1=O
Q = CC[C@@H](C)[C@H](NC(=O)Cn1cccc(NC(=O)[C@H](CC/C=C/C(=O)OC)NC(=O)c2ccccc2)c1=O)C(=O)O
// which entry has the larger pIC50 value, P or Q ? Give the chosen item's label as your response.
Q
